system-tested: Histone deacetylase 11 (Homo sapiens, UniProt Q96DB2)
Sequence (Q96DB2 whole entry): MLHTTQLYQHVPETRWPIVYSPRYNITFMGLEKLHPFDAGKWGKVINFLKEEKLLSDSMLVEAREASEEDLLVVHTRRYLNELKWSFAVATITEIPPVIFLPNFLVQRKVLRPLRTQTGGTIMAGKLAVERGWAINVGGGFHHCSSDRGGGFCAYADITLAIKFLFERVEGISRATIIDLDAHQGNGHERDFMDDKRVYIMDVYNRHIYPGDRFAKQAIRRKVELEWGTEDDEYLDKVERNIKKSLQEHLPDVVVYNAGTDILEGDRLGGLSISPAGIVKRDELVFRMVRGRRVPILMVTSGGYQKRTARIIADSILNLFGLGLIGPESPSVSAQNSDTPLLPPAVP
property-measured: IC50

May I ask what IC50 has been recorded for Nc1nc2cc(-c3nn(CCCCCCC(=O)NO)c4ncnc(N)c34)ccc2o1 ?
> 1000 nM
